// pIC50 lookup, one value per entry
# TARGET OF ASSAY: recombinant cGAS (aa147-522) (Homo sapiens, UniProt Q8N884)
# Construct: recombinant cGAS (aa147-522); His6-SUMO (N, cleaved yes)
# Sequence (Q8N884 147-522): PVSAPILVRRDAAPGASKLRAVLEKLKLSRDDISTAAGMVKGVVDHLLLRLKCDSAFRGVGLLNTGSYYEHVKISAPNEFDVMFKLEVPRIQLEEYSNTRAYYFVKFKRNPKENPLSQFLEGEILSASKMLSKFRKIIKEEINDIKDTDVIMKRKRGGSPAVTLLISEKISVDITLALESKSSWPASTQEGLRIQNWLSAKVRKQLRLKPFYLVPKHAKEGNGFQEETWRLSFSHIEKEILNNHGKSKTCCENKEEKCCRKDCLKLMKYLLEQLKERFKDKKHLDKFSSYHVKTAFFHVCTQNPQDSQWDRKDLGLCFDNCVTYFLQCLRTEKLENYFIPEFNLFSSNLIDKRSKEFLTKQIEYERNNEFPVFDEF
# MEASUREMENT NOTES: In vitro assay for inhibition of cGAS activity (ATP consumption, Kinase Glo)
# APPLIED CONDITIONS: 37° C. 20 minutes, read-out: Activity (Inhibition of cGAS enzyme activity in vitro, IC50)
pIC50: −log10 of the molar value.

{"COMPOUND": "CN1C(=O)S/C(=C\\c2cc(OCc3ccc(NC(=O)c4cccnc4)nc3)c(O)cc2Br)C1=O", "pIC50": "5.00 to 6.30"}

**Q:** Provide measured pIC50 value, entry: `CN1C(=O)S/C(=C\c2cc(Oc3cccc(O)c3N)c(O)cc2Br)C1=O`
**A:** ≤ 5.00

**Q:** Output pIC50 of `COc1cc(/C=C2\Sc3ncccc3C2=O)c(Br)c(Cl)c1O`
**A:** ≥ 6.30

**Q:** Check the records and state pIC50 for `CN1C(=O)S/C(=C\c2cc(OCc3cnc(-n4ccnc4)nc3)c(O)cc2Br)C1=O`
**A:** 5.00 to 6.30

**Q:** Read off the recorded pIC50 for `CN1C(=O)S/C(=C\c2cc(OCc3cnc(NCc4ccncc4)nc3)c(O)c(F)c2Br)C1=O`
**A:** ≥ 6.30

**Q:** Read off the recorded pIC50 for `O=C1NC(=O)/C(=C2\CCCc3cnccc32)S1`
**A:** ≥ 6.30

**Q:** Item `CN1C(=O)S/C(=C\c2cc(OCc3cnc(N)nc3)c(O)c(F)c2Br)C1=O` : provide pIC50
**A:** ≥ 6.30

###

# TARGET OF ASSAY: recombinant cGAS (aa147-522) (Homo sapiens, UniProt Q8N884)
# Construct: recombinant cGAS (aa147-522); His6-SUMO (N, cleaved yes)
# MEASUREMENT NOTES: In vitro assay for inhibition of cGAS activity (ATP consumption, Kinase Glo)
# APPLIED CONDITIONS: 37° C. 20 minutes, read-out: Activity (Inhibition of cGAS enzyme activity in vitro, IC50)
Reported IC50 values follow for various compounds

Here are 5 compounds together with their reported answers.
{"COMPOUND": "COc1cc(/C=c2\\sc3n(c2=O)CCN=3)c(Cl)cc1O [Ex41]", "TARGET OF ASSAY": "recombinant cGAS (aa147-522) (Homo sapiens, UniProt Q8N884)", "VALUE REPORTED": "500 to 10000 nM"}
{"COMPOUND": "CN1C(=O)S/C(=C\\c2cc(OCc3cnc(O)nc3)c(O)cc2Br)C1=O [Ex217]", "TARGET OF ASSAY": "recombinant cGAS (aa147-522) (Homo sapiens, UniProt Q8N884)", "VALUE REPORTED": "500 to 10000 nM"}
{"COMPOUND": "CN1C(=O)S/C(=C\\c2cc(OCc3ccc(=O)[nH]c3)c(O)cc2Br)C1=O [Ex125]", "TARGET OF ASSAY": "recombinant cGAS (aa147-522) (Homo sapiens, UniProt Q8N884)", "VALUE REPORTED": "500 to 10000 nM"}
{"COMPOUND": "CN1C(=O)S/C(=C\\c2cc(OCc3cn[nH]c3)c(O)cc2Br)C1=O [Ex92]", "TARGET OF ASSAY": "recombinant cGAS (aa147-522) (Homo sapiens, UniProt Q8N884)", "VALUE REPORTED": "≤ 500 nM"}
{"COMPOUND": "COc1cc(/C=C2\\Sc3ncccc3C2=O)c(I)cc1O [Ex77]", "TARGET OF ASSAY": "recombinant cGAS (aa147-522) (Homo sapiens, UniProt Q8N884)", "VALUE REPORTED": "≤ 500 nM"}

**Q:** Answer with the recorded IC50 for the compound listed here: CN1C(=O)S/C(=C\c2cc(OCC3(c4cnc(N)nc4)CC3)c(O)c(F)c2Br)C1=O [ExB6]
**A:** 500 to 10000 nM

**Q:** Identify measured IC50 associated with CN1C(=O)S/C(=C\c2cc(OCc3ccccc3)c(O)cc2Br)C1=O [Ex88]
**A:** 500 to 10000 nM

**Q:** Check the records and state IC50 for COCCNc1ncc(COc2cc(/C=C3\SC(=O)N(C)C3=O)c(Br)c(F)c2O)cn1 [Ex153]
**A:** ≤ 500 nM

**Q:** Given CN1C(=O)S/C(=C\c2cc(OCc3ccc(N)nc3)c(O)cc2Br)C1=O [Ex131] , respond with its IC50.
**A:** 500 to 10000 nM
